assayComment: CCTE_Mundy_HCI_Cortical_Synap_Neur_Matur_SynapseCount: CCTE's Synaptogenesis and Neurite Maturation Assay in rat cortical cells for Synapse Count, Mundy Lab (AID 2284218)
Calls of active or inactive are those of the source. The calls were made as follows: active = hit-call score of the fitted dose curve at least 0.9, where 1 is the maximum; inactive = score below 0.9.
measureName: AC50

Some solved cases for reference:
compound: CCOc1ccc(C(C)(C)COCc2cccc(Oc3ccccc3)c2)cc1
AC50: 15 µM (active)

compound: CCCCC(CC)COP(=O)(Oc1ccccc1)Oc1ccccc1 (stereo unspecified)
AC50: inactive

compound: CO/N=C(/C(=O)OC)c1ccccc1COc1ccccc1C
AC50: 3.28 µM (active)

compound: O=C(O)C(F)(OC(F)(F)C(F)(F)C(F)(F)F)C(F)(F)F (stereo unspecified)
AC50: inactive

compound: CC(C)(C)c1ccccc1OP(=O)(Oc1ccccc1)Oc1ccccc1
AC50: 2.69 µM (active)

Please look at the following compound next.
Ask: What does the data say about its AC50? Entry: CCC1(c2ccccc2)C(=O)N=C(O)NC1=O (stereo unspecified)
Reply: inactive

---

measuredOn: Heat shock factor protein 1 (Homo sapiens) (UniProt Q00613)
Sequence (Q00613 whole entry, looked up): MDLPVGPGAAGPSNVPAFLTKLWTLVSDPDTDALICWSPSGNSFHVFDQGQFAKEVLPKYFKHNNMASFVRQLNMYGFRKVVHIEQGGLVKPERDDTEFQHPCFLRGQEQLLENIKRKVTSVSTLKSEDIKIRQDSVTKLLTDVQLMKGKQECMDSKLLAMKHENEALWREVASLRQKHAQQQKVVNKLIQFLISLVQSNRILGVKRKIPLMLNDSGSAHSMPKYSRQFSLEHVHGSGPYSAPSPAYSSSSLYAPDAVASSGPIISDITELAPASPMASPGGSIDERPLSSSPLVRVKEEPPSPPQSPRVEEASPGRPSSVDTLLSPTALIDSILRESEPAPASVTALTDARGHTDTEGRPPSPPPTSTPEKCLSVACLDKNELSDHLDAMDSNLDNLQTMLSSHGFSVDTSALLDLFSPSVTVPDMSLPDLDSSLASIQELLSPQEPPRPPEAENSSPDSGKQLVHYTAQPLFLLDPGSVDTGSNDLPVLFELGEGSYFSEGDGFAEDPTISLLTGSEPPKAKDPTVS
assayComment: ATG_HSE_CIS: Attagene CIS-FACTORIAL HepG2 Assay for human Heat Shock Transcription Factor 1 (HSE) (AID 2282953)
assaySetup: HepG2 HSE cis-reporter, Attagene RNA transcription; actives raise or lower the signal
Active and inactive are the calls of the source. The calls were made as follows: active = hit-call score of the fitted dose curve at least 0.9, where 1 is the maximum; inactive = score below 0.9.
Bench note: report the call from 1 for active, 0 for inactive

Ask: Hey, what did the test say about O=C(O)C(F)(F)OC(F)(F)C(F)(F)OC(F)(F)F ?
Reply: 0

Ask: Same again, this time with CCN(CC)C1CCCCC1
Reply: 0

Ask: Another compound to check: COP(=O)(CCC(=O)NCO)OC
Reply: 0

Ask: // next record O=S1(=O)OCC2C(CO1)C1(Cl)C(Cl)=C(Cl)C2(Cl)C1(Cl)Cl (stereo not given)
Reply: 1

Ask: Same again, this time with FC(F)(F)C(F)(C(F)(F)F)C(F)(F)C(F)(F)CC1CO1 (stereo not given)
Reply: 0

Ask: # iterate: N#C/C=C/c1ccccc1
Reply: 0

Ask: Similarly, O=C(O)C1C(C(=O)O)C2(Cl)C(Cl)=C(Cl)C1(Cl)C2(Cl)Cl (stereo not given) ?
Reply: 0

Ask: # repeat for O=P1(N(CCCl)CCCl)NCCCO1 (stereo not given)
Reply: 0

Ask: Same for Cc1ccc([N+](=O)[O-])cc1C
Reply: 0

Ask: Now consider c1ccc2c(c1)sc1ccccc12 and answer again.
Reply: 0

Ask: # repeat for OCC(F)(F)OC(F)(F)C(F)(F)OC(F)(F)CO
Reply: 0

Ask: Query N#Cc1ccc(O)cc1 next
Reply: 0

Ask: Another compound: C=CC(=O)OCC(CC)(COC(=O)C=C)COC(=O)C=C
Reply: 0

Ask: Same thing, different compound: O=c1[nH]c2ccccc2c(=O)o1
Reply: 0

Ask: Similarly, O=C(O)C(Cl)Cl ?
Reply: 0

---

Read-out: Monokine induced gamma interferon (MIG), CXCL9 (gene 4283)
assayComment: BSK_SAg_MIG: BioMAP Diversity Plus: SAg Assay for Monokine induced gamma interferon (MIG) Biomarker Activity (AID 2283092)
assaySetup: primary human HUVEC with PBMC; actives raise or lower the signal
Activity calls are given as the source filed them. The calls were made as follows: active = hit-call score of the fitted dose curve at least 0.9, where 1 is the maximum; inactive = score below 0.9.
Your response should consist of one outcome taken from 1 (yes) = active, 0 (no) = inactive

Ask: // return assay outcome for CCOP(=S)(OCC)SCn1nnc2ccccc2c1=O
Reply: 0 (no)

Ask: Further, for COP(=O)(CCC(=O)NCO)OC ?
Reply: 0 (no)

Ask: Repeat for the following molecule: CC(C)(C)OOC(C)(C)C
Reply: 0 (no)

Ask: Okay, and O=[N+]([O-])c1ccc(Cl)c(Cl)c1 ?
Reply: 0 (no)

Ask: Here is the next molecule: c1cc2c3c(cccc3c1)CC2
Reply: 0 (no)

Ask: // query: CC(C)Nc1ccc(Nc2ccccc2)cc1
Reply: 1 (yes)

Ask: Please answer likewise for O=C(O)C(F)(F)OC(F)(F)C(F)(F)OC(F)(F)F
Reply: 0 (no)

Ask: Then Cc1cccc(N)c1 ?
Reply: 0 (no)

Ask: Same for O=C(O)C1C(C(=O)O)C2(Cl)C(Cl)=C(Cl)C1(Cl)C2(Cl)Cl (centres undefined)
Reply: 0 (no)

Ask: # repeat for OCC1CO1 (centres undefined)
Reply: 0 (no)

Ask: Now the same for CCOc1ccc(C(C)(C)COCc2cccc(Oc3ccccc3)c2)cc1
Reply: 0 (no)

Ask: Param item: COCCOCCO
Reply: 0 (no)

Ask: Now the same for ClC1=C(Cl)C2(Cl)C3C(Cl)C(Cl)CC3C1(Cl)C2(Cl)Cl (centres undefined)
Reply: 1 (yes)

Ask: Do the same for OCC(F)(F)OC(F)(F)C(F)(F)OC(F)(F)CO please
Reply: 0 (no)
